Molecular target: trypsin (Bos taurus, UniProt P00760)
Sequence (P00760 24-246): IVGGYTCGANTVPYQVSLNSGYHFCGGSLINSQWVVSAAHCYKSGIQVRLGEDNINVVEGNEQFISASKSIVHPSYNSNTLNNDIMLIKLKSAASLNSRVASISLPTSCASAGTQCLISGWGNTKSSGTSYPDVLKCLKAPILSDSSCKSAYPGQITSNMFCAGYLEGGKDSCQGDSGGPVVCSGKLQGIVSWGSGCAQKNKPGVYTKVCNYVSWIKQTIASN
Assay: Ki determination on trypsin (BAPA substrate, Michaelis-Menten / reciprocal plots)
Type: biochemical
Conditions: preliminary investigations; 'in the 10 μM range'
Protocol: The rate of the trypsin catalyzed reaction was determined by monitoring the increase in absorbance at 410 nm over time. In all measurements 5% (v/v) of dimethylsulfoxide (DMSO) was added to solubilize the libraries. For a typical assay, 50 μL of a library solution in DMSO and 10 μL of the trypsin stock solution (2.5 mg trypsin in 25 mL 0.001M HCl) were added to 5 mL of buffer (0.5M Tris-HCl, 0.16M CaCl21 pH 8.2) at 25° C. […]
pKi: −log10 of the molar value.
METRIC_NAME: pKi

SMILES_INPUT: CC[C@H](C)[C@H](NC(=O)c1cc(C(=O)N2CCC[C@H]2C(=O)O)cc2c1Oc1c(C(=O)N[C@@H](CCCCN)C(=O)OC)cc(C(=O)N[C@H](C(=O)O)C(C)C)cc1C2(C)C)C(=O)O
OBSERVED: ~5.00
